system: ACHN; assay: NCI tumour cell line growth inhibition, 48 h
Calls of active or inactive are those of the source. Cut-off read from the data, not from the text of the source: active = GI50 up to about 1.1 µM and inactive = higher.
// one of class 1 (active), class 0 (inactive), no free text

The following compounds have reported results that may help.
| compound | measurement.target | label.class |
| --- | --- | --- |
| Cc1cn([C@H]2CN(O)C[C@@H](CO)O2)c(=O)[nH]c1=O | ACHN | class 0 |
| NNC(=O)c1ccc[n+](CCc2ccccc2)c1 | ACHN | class 0 |
| N#Cc1c(NC(=S)NC(=O)c2ccccc2)nc2c(c1-c1ccccc1)CCC2 | ACHN | class 0 |
| COc1ccc(C2OCCN2C)cc1 (stereo not drawn) | ACHN | class 0 |
| O=C(O)CC[P+](c1ccccc1)(c1ccccc1)c1ccccc1 | ACHN | class 0 |

Problem: Which outcome was assigned to C=C1C[C@@H]2CC[C@@]34CC5O[C@H]6C(O[C@H]7CC[C@H](CC(=O)O[C@@H]8[C@@H](C)[C@@H]9O[C@@H]%10C[C@]%11(C[C@@H]%12O[C@]%13(C[C@H](C)[C@@H]%14O[C@@H]%15CC(C(O)CO)O[C@@H]%15C[C@@H]%14O%13)C[C@H](C)[C@@H]%12O%11)O[C@@H]%10C[C@@H]9O[C@H]8CC8O[C@@H](CC[C@@H]1O2)C[C@@H](C)C8(O)CO)O[C@@H]7[C@@H]6O3)[C@H]5O4 (stereo partly drawn) in this test?
Solution: class 1

Problem: Which outcome was assigned to COC(=O)c1cc(NC(=O)c2cc(NC(=O)Cc3c[nH]c4ccccc34)cn2C)cn1C in this test?
Solution: class 0

Problem: Which outcome was assigned to NC(=O)CCCC(NCc1c2ccccc2nc2ccccc12)C(=O)O (stereo not drawn) in this test?
Solution: class 0
